# subject.of.test: BRAF V600E (Homo sapiens, UniProt P15056, V600E)
# Construct: expressed in transfected cells
# Sequence (P15056 whole entry V600E): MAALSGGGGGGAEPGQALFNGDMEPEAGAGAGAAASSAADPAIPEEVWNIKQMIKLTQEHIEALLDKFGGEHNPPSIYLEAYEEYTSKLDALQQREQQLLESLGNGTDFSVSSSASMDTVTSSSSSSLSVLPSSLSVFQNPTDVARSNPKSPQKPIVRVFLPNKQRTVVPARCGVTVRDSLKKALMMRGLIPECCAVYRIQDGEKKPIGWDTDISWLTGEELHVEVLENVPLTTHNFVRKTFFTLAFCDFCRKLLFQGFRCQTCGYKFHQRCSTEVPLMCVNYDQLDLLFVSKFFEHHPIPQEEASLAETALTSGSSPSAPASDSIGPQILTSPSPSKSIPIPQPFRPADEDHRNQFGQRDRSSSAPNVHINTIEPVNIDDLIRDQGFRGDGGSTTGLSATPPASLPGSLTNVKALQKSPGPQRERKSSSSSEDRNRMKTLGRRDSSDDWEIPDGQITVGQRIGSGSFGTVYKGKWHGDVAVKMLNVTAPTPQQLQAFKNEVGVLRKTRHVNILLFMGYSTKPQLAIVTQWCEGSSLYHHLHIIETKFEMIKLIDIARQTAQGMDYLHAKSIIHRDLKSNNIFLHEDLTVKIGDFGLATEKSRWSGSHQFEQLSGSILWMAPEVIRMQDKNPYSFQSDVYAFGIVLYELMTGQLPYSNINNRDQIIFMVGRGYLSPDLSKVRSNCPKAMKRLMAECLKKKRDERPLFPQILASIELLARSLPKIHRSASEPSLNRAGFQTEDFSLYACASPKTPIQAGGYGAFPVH
# assay.remarks: Cellular assay of target protein degradation, T-Rex 293 cells stably transfected with HA-BRAF_V600E (HA immunofluorescence, high content imaging)
# Assay type: cell-based
# condition.info: maximum degradation observed, T-Rex 293 HA-BRAF V600E
quantity.measured: Dmax

INSERT INTO measurements (compound, val) VALUES
  ('O=C1CC[C@@H](N2Cc3cc(C[C@@H](O)CN4CC5(C4)CN(c4ccc(-c6cnc7[nH]cc(C(=O)c8c(F)ccc(NS(=O)(=O)N9CC[C@@H](F)C9)c8F)c7c6)cc4)C5)ccc3C2=O)C(=O)N1', '35 to 70%'),
  ('O=C1CC[C@H](N2Cc3cc(N4C[C@H]5CN(CC6CCN(c7ccc(-c8cnc9[nH]cc(C(=O)c%10c(F)ccc(NS(=O)(=O)N%11CC[C@@H](F)C%11)c%10F)c9c8)cc7)CC6)C[C@H]5C4)ccc3C2=O)C(=O)N1', '35 to 70%'),
  ('O=C1CCC(N2Cc3cc(C4CCN(C[C@@H]5CCN(c6ccc(-c7cnc8[nH]cc(C(=O)c9c(F)ccc(NS(=O)(=O)N%10CC[C@@H](F)C%10)c9F)c8c7)cc6)C[C@@H]5F)CC4)ccc3C2=O)C(=O)N1 (stereo partly shown)', '35 to 70%'),
  ('O=C1CCC(N2Cc3cc(C4CCN(C[C@@H]5CCN(c6ccc(-c7cnc8[nH]cc(C(=O)c9c(F)ccc(NS(=O)(=O)N%10CC[C@@H](F)C%10)c9F)c8c7)cc6)C(=O)C5)CC4)ccc3C2=O)C(=O)N1 (stereo partly shown)', '> 70%'),
  ('COc1cc(N2CCC(CN3CCN(c4ccc(-c5cnc6[nH]cc(C(=O)c7c(F)ccc(NS(=O)(=O)N8CC[C@@H](F)C8)c7F)c6c5)cc4)CC3)CC2)ccc1C(=O)NC1CCC(=O)NC1=O (stereo partly shown)', '35 to 70%'),
  ('CN(CCO)S(=O)(=O)Nc1ccc(F)c(C(=O)c2c[nH]c3ncc(-c4ccc(N5CCC(CN6CCC(c7ccc8c(c7)CN([C@H]7CCC(=O)NC7=O)C8=O)CC6)CC5)cc4)cc23)c1F', '35 to 70%'),
  ('O=C1CC[C@@H](NC(=O)c2cc(C3CCN(CC4CCN(c5ccc(-c6cnc7[nH]cc(C(=O)c8c(F)ccc(NS(=O)(=O)N9CC[C@@H](F)C9)c8F)c7c6)cc5)CC4)CC3)ccc2F)C(=O)N1', '< 35%');

###

# subject.of.test: BRAF V600E (Homo sapiens, UniProt P15056, V600E)
# Construct: expressed in transfected cells
# assay.remarks: Cellular assay of target protein degradation, T-Rex 293 cells stably transfected with HA-BRAF_V600E (HA immunofluorescence, high content imaging)
# Assay type: cell-based
# condition.info: half maximal degradation, T-Rex 293 HA-BRAF V600E; read-out: BRaf V600E DC50
quantity.measured: DC50

INSERT INTO assay_data (compound, quantity_measured, val) VALUES
  ('CN(c1ncc(-c2cnc3[nH]cc(C(=O)c4c(F)ccc(NS(=O)(=O)N5CC[C@@H](F)C5)c4F)c3c2)cn1)C1CCN(CC2CCN(c3ccc4c(c3)CN([C@H]3CCC(=O)NC3=O)C4=O)CC2)CC1 [Compound 287]', 'DC50', '5 to 50 nM'),
  ('COc1cc([C@H](O)CCN2CCN(c3ccc(-c4cnc5[nH]cc(C(=O)c6c(F)ccc(NS(=O)(=O)N7CC[C@@H](F)C7)c6F)c5c4)cc3)CC2)cc2c1C(=O)N([C@H]1CCC(=O)NC1=O)C2 [Compound 186]', 'DC50', '50 to 500 nM'),
  ('O=C1CCC(N2Cc3cc(N4CCCN(CC5CCN(c6ccc(-c7cnc8[nH]cc(C(=O)c9c(F)ccc(NS(=O)(=O)N%10CC[C@@H](F)C%10)c9F)c8c7)cc6)CC5)CC4)ccc3C2=O)C(=O)N1 (stereo partly drawn) [Compound 324]', 'DC50', '5 to 50 nM'),
  ('O=C1CCC(N2Cc3cc(N4CC(C5CN(CC6CCN(c7ccc(-c8cnc9[nH]cc(C(=O)c%10c(F)ccc(NS(=O)(=O)N%11CC[C@@H](F)C%11)c%10F)c9c8)cc7)CC6)C5)C4)ccc3C2=O)C(=O)N1 (stereo partly drawn) [Compound 227]', 'DC50', '5 to 50 nM'),
  ('O=C1CC[C@H](N2Cc3cc([C@@H](O)CCN4CC5(C4)CN(c4ccc(-c6cnc7[nH]cc(C(=O)c8c(F)ccc(NS(=O)(=O)N9CC[C@@H](F)C9)c8F)c7c6)cc4)C5)ccc3C2=O)C(=O)N1 [Compound 106]', 'DC50', '5 to 50 nM'),
  ('CNc1cc(-c2cnc3[nH]cc(C(=O)c4c(F)ccc(NS(=O)(=O)N5CC[C@@H](F)C5)c4F)c3c2)cc(NC)c1N1CCC(CN2CCC(c3ccc4c(c3)CN([C@H]3CCC(=O)NC3=O)C4=O)CC2)CC1 [Compound 284]', 'DC50', '5 to 50 nM'),
  ('CN(CC1CCN(c2ccc3c(c2)CN(C2CCC(=O)NC2=O)C3=O)CC1)[C@H]1C[C@@H](Oc2ccc(-c3cnc4[nH]cc(C(=O)c5c(F)ccc(NS(=O)(=O)N6CC[C@@H](F)C6)c5F)c4c3)cc2)C1 (stereo partly drawn) [Compound 167]', 'DC50', '5 to 50 nM'),
  ('COc1cc(N2CCC(CN3CCC4(CC3)CCN(c3ccc(-c5cnc6[nH]cc(C(=O)c7c(F)ccc(NS(=O)(=O)N8CC[C@@H](F)C8)c7F)c6c5)cc3)CC4)CC2)cc2c1C(=O)N(C1CCC(=O)NC1=O)C2 (stereo partly drawn) [Compound 6]', 'DC50', '< 5 nM'),
  ('O=C1CC[C@H](N2Cc3cc(CCCCN4CC5(C4)CN(c4ccc(-c6cnc7[nH]cc(C(=O)c8c(F)ccc(NS(=O)(=O)N9CC[C@@H](F)C9)c8F)c7c6)cc4)C5)ccc3C2=O)C(=O)N1 [Compound 62]', 'DC50', '< 5 nM'),
  ('O=C1CC[C@@H](NC(=O)N2CCCc3c(N4CCC(CN5CCN(c6ccc(-c7cnc8[nH]cc(C(=O)c9c(F)ccc(NS(=O)(=O)N%10CC[C@@H](F)C%10)c9F)c8c7)cc6)CC5)CC4)ccnc32)C(=O)N1 [Compound 372]', 'DC50', '> 500 nM'),
  ('COc1cc(CCCN2CC3(C2)CN(c2ccc(-c4cnc5[nH]cc(C(=O)c6c(F)ccc(NS(=O)(=O)N7CC[C@@H](F)C7)c6F)c5c4)cc2)C3)cc2c1C(=O)N(C1CCC(=O)NC1=O)C2 (stereo partly drawn) [Compound 22]', 'DC50', '5 to 50 nM'),
  ('O=C1CCC(N2Cc3cc(C4CCN(CC5CCN(c6c(F)cc(-c7cnc8[nH]cc(C(=O)c9c(F)ccc(NS(=O)(=O)N%10CC[C@@H](F)C%10)c9F)c8c7)cc6F)CC5)CC4)ccc3C2=O)C(=O)N1 (stereo partly drawn) [Compound 94]', 'DC50', '5 to 50 nM');
